Source of measurements: patent US20220281821A1

# system.under.test: BaF3-CD74-NTRK1 (Homo sapiens, UniProt P04629)
# Construct: fused on or other part: P04233 (HLA class II histocompatibility antigen gamma chain)
# Sequence (P04629 510-796 limits assumed): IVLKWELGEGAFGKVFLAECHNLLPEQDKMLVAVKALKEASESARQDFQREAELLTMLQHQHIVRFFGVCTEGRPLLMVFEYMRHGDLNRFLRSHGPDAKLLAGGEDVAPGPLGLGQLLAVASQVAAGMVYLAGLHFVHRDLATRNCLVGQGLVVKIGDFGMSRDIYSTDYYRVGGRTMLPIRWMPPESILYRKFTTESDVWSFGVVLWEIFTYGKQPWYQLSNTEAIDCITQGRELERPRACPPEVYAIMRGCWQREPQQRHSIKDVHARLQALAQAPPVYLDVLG
# method.summary: Cell proliferation inhibition (CCK-8), BaF3-CD74-NTRK1 stable strain
# condition.context: BaF3-CD74-NTRK1, 72 hours
Quick reference: IC50 of the listed items.

Please review the entries below; each comes with its answer.
# compound, observed.value
rows = [
    ("Fc1ccc(Cc2ccc3[nH]nc(C#Cc4ccccn4)c3c2)cc1 [DYX-027]", "> 10 µM"),
    ("Fc1cc(F)cc(C#Cc2ccc3[nH]nc(/C=C/c4ccccn4)c3c2)c1 [DYX-183]", "> 10 µM"),
    ("Fc1ccc(Cc2ccc3[nH]nc(/C=C/c4ccccn4)c3c2)c(F)c1 [DYX-060]", "> 10 µM"),
]

Next item in the queue.
Output IC50 of Clc1cccc(Cc2ccc3[nH]nc(C#Cc4ccccn4)c3c2)c1 [DYX-134Q]
> 10 µM
